The reported numbers originate from the supplement of paper PMC11451515.

# Tested on: P12-Ichikawa
# METHOD: cell viability relative to DMSO control; higher = less cytotoxic
# TEST_CONTEXT: HPLM + 10% dialyzed FBS; 48 h; 0.569 µM
RECORDED_ENDPOINT: cell viability (%)
Field format: number, assumed %, no unit text.

# annotated cases, reported cell viability shown
q: Hi! What's the reported cell viability for COc1cc2c(cc1OC)C1CC(=O)C(CC(C)C)CN1CC2 (stereo not drawn) on P12-Ichikawa?
a: 117

q: Note, next up: Cc1ccccc1C(C(=O)NC1CCCCC1)N(C(=O)Cn1ccnc1C)c1cccc(F)c1 (stereo not drawn)
a: 109

q: Note, next up: COc1ccc(CC2NCCc3cc(OC)c(OC)cc32)cc1OC (stereo not drawn)
a: 97.4

q: Note, next up: CC(C)(C)C(=O)Oc1ccc2c(c1)nc(NC(=O)c1cccc([N+](=O)[O-])c1)n2CCCO
a: 116

q: Note, next up: CC1(C)CCC[C@]2(C)[C@H]3CC(=O)O[C@]3(C)CC[C@@H]12
a: 115

More entries:
q: Hi! What's the reported cell viability for CC(C)n1nc(-c2cc3cc(O)ccc3[nH]2)c2c(N)ncnc21 on P12-Ichikawa?
a: 73

q: Note, next up: COc1cc2nc(N(C)CCCNC(=O)C3CCCO3)nc(N)c2cc1OC (stereo not drawn)
a: 86.2

q: Note, next up: CC(=O)Oc1ccccc1C(=O)O
a: 96.6

q: Note, next up: C[C@H](NC(=O)/C(C#N)=C/c1cccc(Br)n1)c1ccccc1
a: 120

q: Note, next up: COC[C@H]1OC(=O)C2=COC3=C2[C@@]1(C)\C4=C(C5CCC(=O)[C@@]5(C)C[C@H]4OC(C)=O)/C3=O (stereo partly drawn)
a: 107

q: Note, next up: CCC1(C)CC(=O)NC1=O (stereo not drawn)
a: 100

q: Note, next up: COC1=NC(=NC(=C1N\C2=N\CCN2)Cl)C
a: 93.4

q: Note, next up: CN1[C@@H]2CC(OC(=O)[C@@H](CO)c3ccccc3)C[C@H]1[C@H]1O[C@H]12 (stereo partly drawn)
a: 101
